target: SsoRadA (Saccharolobus solfataricus)
Sequence (Q55075 whole entry): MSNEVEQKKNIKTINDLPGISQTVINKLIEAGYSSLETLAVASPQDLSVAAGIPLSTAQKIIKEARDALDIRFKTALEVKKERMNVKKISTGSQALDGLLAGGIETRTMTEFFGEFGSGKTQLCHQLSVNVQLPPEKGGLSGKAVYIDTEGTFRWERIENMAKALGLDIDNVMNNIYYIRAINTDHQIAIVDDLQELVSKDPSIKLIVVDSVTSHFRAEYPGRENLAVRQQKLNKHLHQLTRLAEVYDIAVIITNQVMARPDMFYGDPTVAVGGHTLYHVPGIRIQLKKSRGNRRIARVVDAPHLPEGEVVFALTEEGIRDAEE
observed property: pKd
One number for each entry, as −log10 of the molar value.

Nc1ncnc2c1ncn2[C@@H]1O[C@H](COP(=O)(O)OP(=O)(O)OP(=O)(O)O)[C@@H](O)[C@H]1O yielded pKd of 5.95
